# Test system: mouse leukemia L1210
# Protocol: Antitumor activity test on mouse leukemia L1210 in vivo
# Particulars: L1210, average survival time treated/control ×100, i.p. once a day for 5 days
Measured metric: max (T/C) (%)

>>> df
                                   molecule  unit_descriptor  assay_value
0  C[C@H]1CC[NH2+][Pt-2]2([NH2+]C1)[O]C(=O)C1(CCC1)C(=O)[O]2 [15S]                %          206
1  O=C1[O][Pt-2]2([NH2+]CCCC[NH2+]2)[O]C(=O)C12CCC2                %          182
2  CCC1CC[NH2+][Pt-2]2([NH2+]C1)[O]C(=O)C(=O)[O]2 (racemic)                %          253
3  CC1(C)CC[NH2+][Pt-2]2([NH2+]C1)[O]C(=O)C1(CCOCC1)C(=O)[O]2                %          159
4  CCC(N)CCCN.O=C([O-])C1(C(=O)[O-])CCC1.[Pt+2]                %          139
5  [Cl][Pt-2]1([Cl])[NH2+]CCCC[NH2+]1 [Compound No. 1, cis-Dichloro-1,4-butanediamine platinum]                %          203
6  CC1CC[NH2+][Pt-2]2([NH2+]C1)[O]C(=O)CC(=O)[O]2 (racemic)                %          346
7  CC1(C)CC[NH2+][Pt-2]([Cl])([Cl])[NH2+]C1                %          359

###

# Test system: mouse leukemia L1210
# Protocol: Antitumor activity test on mouse leukemia L1210 in vivo
# Particulars: L1210, average survival time treated/control ×100, i.p. once a day for 5 days
This section presents compounds with their documented max (T/C) values.
Measured metric: max (T/C) (%)

                                   compound  unit_descriptor  assay_value
0  CC1CCC[NH2+][Pt-2]2([NH2+]1)[O]C(=O)C(C)(C)C(=O)[O]2 (racemic)                %          189
1  CC(N)CCCN.O=C([O-])CC(=O)[O-].[Pt+2] (centres unmarked)                %          359
2  CC(N)CCCN.O=C([O-])C(=O)[O-].[Pt+2] (centres unmarked)                %          273
3  CC1CC[NH2+][Pt-2]2([NH2+]C1)[O]C(=O)C1(CCC1)C(=O)[O]2 (racemic)                %          182
4  CCC(N)CCCN.O=C([O-])C1(C(=O)[O-])CCOCC1.[Pt+2]                %          181
5  CCC1C(=O)[O][Pt-2]2([NH2+]CCCC(C)[NH2+]2)[O]C1=O (racemic)                %          222
6  CC1CC[NH2+][Pt-2]2([NH2+]C1)[O]C(=O)C1(CCOCC1)C(=O)[O]2 (racemic)                %          167
7  CCC1C(=O)[O][Pt-2]2([NH2+]CCC(C)C[NH2+]2)[O]C1=O (racemic)                %          264
